I'd be grateful if you could share measured EC50 for these entries.
Test system: P388
Experiment: Cytotoxicity against mouse P388 cells assessed as growth inhibition after 48 hrs by coulter particle counter analysis
Type: functional
Settings: P388, 48 h, read-out: ED50 (the source's name)
One number for each entry, in µg/mL.

Would you please look over these solved cases?
>  <SMILES NOTATION>
CC1=C(CC[C@](C)(O)CO)O[C@H]2C[C@H]3[C@@H]4CC[C@H]5CC(=O)CC[C@]5(C)[C@H]4CC(=O)[C@]3(C)[C@@H]12

>  <TESTED TARGET>
P388

>  <OBSERVED PROPERTY>
EC50

>  <OBS VALUE>
23.4

$$$$
>  <SMILES NOTATION>
C=C(C)CCC1=C(C)[C@H]2[C@H](C[C@H]3[C@@H]4CC[C@H]5CC(=O)CC[C@]5(C)[C@H]4CC(=O)[C@@]32C)O1

>  <TESTED TARGET>
P388

>  <OBSERVED PROPERTY>
EC50

>  <OBS VALUE>
14.5

$$$$

Next, consider the following compound.
Query string: Entry CC(=O)OC[C@@](C)(O)CCC1=C(C)[C@H]2[C@H](C[C@H]3[C@@H]4CC[C@H]5CC(=O)CC[C@]5(C)[C@H]4CC(=O)[C@@]32C)O1 has what EC50?
Result string: 19.3
